Entry source: paper PMC8129719

- Assay type: in vivo, human
- testConditions: female, human, plasma and urine, oral
Answer each item with its documented CL renal.
Numbers only, in mL/min.

> print(dat)
                cpdsmiles  endpointlabel  observed
1  Cc1ncc(CO)c(C(=O)O)c1O       CL renal       253

Here's the next entry for you.
Name the reported CL renal value associated with the compound COc1cc(CC(=O)O)ccc1O
340
